FYI, the data here is from PubChem BioAssay (NCI).

System: SNB-19 CNS
Experiment: NCI tumour cell line growth inhibition, 48 h; in the data active = GI50 below about 0.43 µM; inactive = the rest
Your response should consist of one outcome taken from active, inactive

>>> group("COC(=O)c1ccc(NC(=O)Nc2ccc3oc(=O)c4ccccc4c3c2)cc1")
"inactive"
>>> group("CN(C)CCOc1ccc(/C(=C(/CCCl)c2ccccc2)c2ccccc2)cc1")
"inactive"
>>> group("CC(C)(C)c1[nH]cnc1/C=c1\\[nH]c(=O)/c(=C/c2ccccc2)[nH]c1=O")
"active"

Answer briefly: the call reported for CCOC(=O)C1=C(C)NC2SC(=O)/C(=C\c3ccccc3O)N2C1c1ccccc1 (stereo unspecified) in this assay.
inactive

Answer briefly: the call reported for "CC/C(=C(/CC)c1ccc([O-])cc1)c1ccc([O-])cc1.CC/C(=C(\CC)c1ccc([O-])cc1)c1ccc([O-])cc1.O=C([CH-]C(=O)c1ccccc1)c1ccccc1.O=C([CH-]C(=O)c1ccccc1)c1ccccc1.O=C([CH-]C(=O)c1ccccc1)c1ccccc1.O=C([CH-]C(=O)c1ccccc1)c1ccccc1.[Ti+4].[Ti+4]" in this assay.
inactive

Answer briefly: the call reported for "Oc1ccc(O)c(-c2cc(-c3ccccc3)nn2-c2ccccc2)c1" in this assay.
inactive

---

Tested on: ACHN renal
Assay: NCI tumour cell line growth inhibition, 48 h; in the data active = GI50 below about 0.43 µM; inactive = the rest
Your response should consist of one outcome taken from active, inactive

Study these solved cases before continuing.
>>> group("CCN1C(=O)NC(=O)C(C)(N2C(=O)c3c(F)c(F)c(F)c(F)c3C2=O)C1=O (stereo not given)")
"inactive"
>>> group("CCCC[N+](CCCC)=c1ccc2nc3c(C)cc(N(CC)CC)cc3sc-2c1")
"active"
>>> group("O=[N+]([O-])c1ccc2c(N3CCC(CCCC4CCN(c5ncnc6cc([N+](=O)[O-])ccc56)CC4)CC3)ncnc2c1")
"inactive"

Answer briefly: the call reported for "Cc1cc(C2=NNC(=O)Cc3cc4c(cc32)OCCO4)cc(C)c1N" in this assay.
inactive

Answer briefly: the call reported for "O=c1cc(N2CCNCC2)oc2c(-c3ccccc3)cccc12" in this assay.
inactive

Answer briefly: the call reported for "O=C(CSC(c1ccccc1)c1ccccc1)N/N=C/c1cccc(Cl)c1" in this assay.
inactive

Answer briefly: the call reported for "O=C(c1ccco1)c1nc2cc(F)ccc2[n+]([O-])c1C(F)(F)F" in this assay.
inactive

Answer briefly: the call reported for "O=C1c2ccccc2C(=Cc2ccccc2)c2ccccc21" in this assay.
inactive

Answer briefly: the call reported for "O=C(Nc1ccc(Oc2ccc3nc(NC(=O)c4ccccc4)[nH]c3c2)cc1)Nc1cc(C(F)(F)F)ccc1F" in this assay.
inactive

Answer briefly: the call reported for CN(C)c1ncnc2c1nnn2C1OC(CO)C(O)C1O (stereo not given) in this assay.
active

---

System: NCI-H460 lung
Please go through the items and note down their GI50.

>>> result("CCN1C(=O)NC(=O)C(C)(N2C(=O)c3c(F)c(F)c(F)c(F)c3C2=O)C1=O (centres undefined)")
"4.95 µM"
>>> result("COc1cccc2c1-c1c(c3ccc([N+](=O)[O-])cc3c(=O)n1CCCCl)C2=O")
"0.972 µM"
>>> result("Cc1cccc(C(=O)/C=C/SC(=NC#N)SCc2ccccc2)c1")
"36.5 µM"

Turning to the following compound.
Need GI50 of "CC(=O)O[C@H](C[C@H](C(C)C)N(C)C(=O)[C@@H](NC(=O)[C@H]1CCCCN1C)C(C)C)c1nc(C(=O)N[C@@H](Cc2ccccc2)C[C@H](C)C(=O)O)c(C(C)C)s1" , thanks.
< 0.00333 µM

---

System: HL-60(TB) leukemia
Test: NCI tumour cell line growth inhibition, 48 h
Please go through the items and note down their TGI.

// known answers, use as guide
>>> result("CC(=O)O[C@H](C[C@H](C(C)C)N(C)C(=O)[C@@H](NC(=O)[C@H]1CCCCN1C)C(C)C)c1nc(C(=O)N[C@@H](Cc2ccccc2)C[C@H](C)C(=O)O)c(C(C)C)s1")
"< 0.00333 µM"
>>> result("O=C(O)c1ccccc1CC1Cc2ccc3c(c2C1=O)CCC3 (stereo unspecified)")
"> 100 µM"
>>> result("O=C(O)c1ccc(-c2nc3ccc(Cl)cc3[nH]2)cc1")
"> 100 µM"
>>> result("COc1cc(N/N=C/C#N)cc(OC)c1OC")
"5.64 µM"
>>> result("O=S(=O)(O)c1ccc(-c2nnc(-c3ccccn3)nc2-c2ccc(S(=O)(=O)O)o2)o1")
"> 100 µM"
>>> result("CCCCCC(=O)Nc1nc[nH]c1C(N)=O")
"> 100 µM"
>>> result("O=c1c2ccccc2n2n1CC(O)C2 (stereo unspecified)")
"> 100 µM"
>>> result("CCCCCCCCOC(CO)CO")
"> 100 µM"

Please state, for each entry, its recorded TGI.
1. CCOP(=O)(OCC)C(N)Cc1ccc(OC)c(OC)c1 (stereo unspecified)
2. OCC1OC(OCC(O)C(O)C(O)C(/C=N/Nc2ccccc2)=N/Nc2ccccc2)C(O)C(O)C1O (stereo unspecified)
3. O=C1/C(=C/c2ccc(Cl)cc2)N=C(c2ccccc2)N1c1nc2ccccc2s1

> 100 µM
> 100 µM
18.4 µM

---

Tested on: A549 NSCLC
Experiment: NCI tumour cell line growth inhibition, 48 h; in the data active = GI50 below about 0.43 µM; inactive = the rest
Your response should consist of one outcome taken from 1 = active, 0 = inactive

Study these solved cases before continuing.
>>> group("CO/N=C(\\C)c1cccc(Nc2cc(-c3ccccc3)nc3c(O)cccc23)c1")
0
>>> group("COc1ccc2c(c1)C(=O)C(=O)c1cc(O)c(OC)c(OC)c1-2")
0
>>> group("O=C(CSC(c1ccccc1)c1ccccc1)N/N=C/c1cccc(Cl)c1")
0

Answer briefly: the call reported for "O=C(Nc1ccc(CN2CCOCC2)cc1)c1[nH]ncc1Nc1ncnc2sccc12" in this assay.
1

Answer briefly: the call reported for "Cc1cc(C2=NNC(=O)Cc3cc4c(cc32)OCCO4)cc(C)c1N" in this assay.
0

---

Tested on: RPMI-8226 leukemia
Assay: NCI tumour cell line growth inhibition, 48 h; in the data active = GI50 below about 0.43 µM; inactive = the rest
Your response should consist of one outcome taken from t (active), f (inactive)

>>> group("O=C(Nc1ccc(Cl)cc1F)c1cc(I)ccc1O")
"f"
>>> group("CC1CCN(CCCCCOc2ccc3oc4cc(Cl)ccc4c(=O)c3c2)CC1")
"f"
>>> group("CCCC[N+](CCCC)=c1ccc2nc3c(C)cc(N(CC)CC)cc3sc-2c1")
"t"
>>> group("CCOC(=O)/C=C/c1cc2cc(-c3csc4ccccc34)ccc2[nH]1")
"f"

Answer briefly: the call reported for "O=C(CSC(c1ccccc1)c1ccccc1)N/N=C/c1cccc(Cl)c1" in this assay.
f

Answer briefly: the call reported for "O=C(CN1CCN(c2ccc(Cl)cc2)CC1)N1CCN(c2nnc(-c3ccc(Cl)cc3)c(-c3ccc(Cl)cc3)n2)CC1" in this assay.
f

Answer briefly: the call reported for "O=C(CF)N(O)c1ccc(/C=C/c2ccccc2)cc1" in this assay.
f

Answer briefly: the call reported for "COc1cnc2c(c1)C(=O)c1c-2n(CCCN2CCC(O)CC2)c(=O)c2cc(F)ccc12" in this assay.
t

Answer briefly: the call reported for "CC(C)(C)c1[nH]cnc1/C=c1\[nH]c(=O)/c(=C/c2ccccc2)[nH]c1=O" in this assay.
t

Answer briefly: the call reported for "C/C(=N\N=C(\[Se])N1CCN(c2ccccn2)CC1)c1ccccn1" in this assay.
t

Answer briefly: the call reported for "CN1CCN(Cc2ccc(NC(=O)c3cncc(C#Cc4cncc5ncccc45)c3)cc2C(F)(F)F)CC1" in this assay.
f

Answer briefly: the call reported for "C/C(=C\C1=C(Cl)C(=O)c2ccccc2C1=O)C(=O)O" in this assay.
f

Answer briefly: the call reported for "CC(=O)c1cc2c(cc1Nc1c3ccccc3nc3occ(Cl)c13)OCO2" in this assay.
t

---

Tested on: HCC-2998 colon
Test: NCI tumour cell line growth inhibition, 48 h; in the data active = GI50 below about 0.43 µM; inactive = the rest
Your response should consist of one outcome taken from T for active, F for inactive

Study these solved cases before continuing.
>>> group("O=C(Nc1cccc(Oc2nnc(Cl)c3ccccc23)c1)Nc1ccc(Cl)c(C(F)(F)F)c1")
"F"
>>> group("COC(=O)[C@]12CC[C@@H](C)[C@H](C)[C@@H]1C1=CC[C@@H]3[C@@]4(C)C(C=O)=C[C@@](C)(COC(=O)c5ccco5)[C@@H]4C(=O)C[C@@]3(C)[C@]1(C)CC2")
"F"
>>> group("Cc1noc(C)c1-c1cc(O)cc(C(O)c2ccccc2)c1 (configuration not stated)")
"F"

Answer briefly: the call reported for "O=C(CN1CCN(c2ccc(Cl)cc2)CC1)N1CCN(c2nnc(-c3ccc(Cl)cc3)c(-c3ccc(Cl)cc3)n2)CC1" in this assay.
F

Answer briefly: the call reported for "COc1cnc2c(c1)C(=O)c1c-2n(CCCN2CCC(O)CC2)c(=O)c2cc(F)ccc12" in this assay.
F

Answer briefly: the call reported for "CC(=O)O[C@H](C[C@H](C(C)C)N(C)C(=O)[C@@H](NC(=O)[C@H]1CCCCN1C)C(C)C)c1nc(C(=O)N[C@@H](Cc2ccccc2)C[C@H](C)C(=O)O)c(C(C)C)s1" in this assay.
T

Answer briefly: the call reported for "CC(=O)OCC(=O)O[C@@H]1C[C@]2(C(C)C)O[C@@]1(C)[C@@H]1CC[C@@H](C)[C@H]1[C@@H]2OC(=O)/C=C/c1ccccc1" in this assay.
F
